- measurementTarget: T1, purified recombinant RSV-Gb protein (Sino Biologics) (Respiratory Syncytial Virus subtype B, …, UniProt O36633 67-299)
- T1 sequence: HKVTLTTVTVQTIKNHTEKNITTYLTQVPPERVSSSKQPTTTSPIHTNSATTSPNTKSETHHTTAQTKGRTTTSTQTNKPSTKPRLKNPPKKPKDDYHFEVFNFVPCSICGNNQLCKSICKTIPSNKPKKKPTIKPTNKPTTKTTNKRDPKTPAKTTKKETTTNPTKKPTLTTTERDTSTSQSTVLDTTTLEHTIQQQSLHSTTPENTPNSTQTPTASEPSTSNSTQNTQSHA
- assayName: SPR (IBIS MX96), IgG captured on anti-human IgG, RSV Gb injected
propertyMeasured: koff
Please provide the amount together with its unit, number first.

Value lookup for koff; key = AT40 (antibody, V domains shown) VH: QVQLVESGGGVVQPGMSHRLSCAASTLIFDRHALHWVRQAPGAGLEWVAILSYDGTTDYYADSVKGRFTVSRDTSKNTVFLQMNGLRPQDTAVYYCARGRALDDFADYGGYYFDYWGQGILVTVSS VL: DIQMTQSPSSVSASVGDKVTITCRASQGISTWLAWYQQKPGKAPALLIYSASRLQSGVPSRFSGSGSGTDFTLTISSLQPEDYATYYCQQANTFPFTFGPGTKVDIKR 3e-05 s⁻¹
